target: human orexin-2 receptor (Homo sapiens (Human)); experiment: In vitro assay: intracellular calcium measurements (FLIPR), antagonistic activity; conditions: CHO cells expressing human orexin-2 receptor, orexin-A agonist, geometric mean, read-out: IC50 Ox2
Sequence (O43614 whole entry): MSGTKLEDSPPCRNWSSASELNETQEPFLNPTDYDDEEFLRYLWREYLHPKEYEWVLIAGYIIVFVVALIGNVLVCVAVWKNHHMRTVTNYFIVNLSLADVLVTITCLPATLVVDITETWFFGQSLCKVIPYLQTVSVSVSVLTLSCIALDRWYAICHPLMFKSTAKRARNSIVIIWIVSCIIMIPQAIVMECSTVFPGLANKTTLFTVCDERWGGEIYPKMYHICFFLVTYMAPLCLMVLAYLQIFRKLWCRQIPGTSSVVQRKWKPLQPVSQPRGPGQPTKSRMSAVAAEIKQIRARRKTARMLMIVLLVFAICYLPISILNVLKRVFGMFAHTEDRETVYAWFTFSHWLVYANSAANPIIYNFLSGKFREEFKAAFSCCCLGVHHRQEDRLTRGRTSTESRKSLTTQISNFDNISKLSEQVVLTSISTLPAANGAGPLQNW
pIC50: −log10 of the molar value.
outcome_measure: pIC50

Solved cases (2 shown):
Cc1cc(C)c2nc([C@@H]3[C@@H](C)CCN3C(=O)c3nc(C)sc3-c3cccc(Cl)c3)[nH]c2c1 [Ex. 4.16] ... 6.60
Cc1ccc(C(=O)N2CCC[C@@]2(C)c2nc3cc(C(F)(F)F)ccc3[nH]2)c(-n2nccn2)c1 [Ex. 5.171] ... 7.24

P = CSc1ccc2nc([C@@H]3CCCN3C(=O)c3cnc(C)nc3-c3ccc(Cl)c(Cl)c3)[nH]c2c1 [Ex. 1.49]
Q = C=C1C[C@@H](c2nc3cc(OC)ccc3[nH]2)N(C(=O)c2nc(C3CC3)sc2-c2ccc(C)cc2)C1 [Ex. 6.35]
Select the item with the higher value of pIC50 from the options P and Q listed. Please identify the chosen entry by its label. P
